The following compounds are listed with their measured IC50 values.
Test system: HEK 293T cells
Experiment: HEK293T cell proliferation assay ([3H]-thymidine incorporation)
Assay type: cell-based, human
Conditions: Homo sapiens; anti-proliferative activity, HEK 293T cells, 24 h drug exposure; read-out: IC50 ± SEM
Give just the number in nM; leave the unit off.

Completed entries (count: 3):
>>> observed_result("CC(C)[C@]12O[C@H]1[C@@H]1O[C@]13[C@]1(O[C@H]1C[C@H]1C4=C(CC[C@@]13C)C(=O)OC4)[C@@H]2O [TPL, reference compound]")
5.6
>>> observed_result("CC(C)[C@]12O[C@H]1[C@@H]1O[C@]13[C@]1(O[C@H]1C[C@H]1C4=C(CC[C@@]13C)C(=O)OC4)[C@@H]2OC(=O)c1ccccc1C(=O)O[C@@H]1OC(CO)[C@@H](O)C(O)C1O (stereo partly drawn)")
5890
>>> observed_result("CC(C)[C@]12O[C@H]1[C@@H]1O[C@]13[C@]1(O[C@H]1C[C@H]1C4=C(CC[C@@]13C)C(=O)OC4)[C@@H]2OC(=O)CC(C)(C)C(=O)O[C@@H]1OC(CO)[C@@H](O)C(O)C1O (stereo partly drawn)")
3300

Field: IC50 (HEK 293T cells). Entry: CC(C)[C@]12O[C@H]1[C@@H]1O[C@]13[C@]1(O[C@H]1C[C@H]1C4=C(CC[C@@]13C)C(=O)OC4)[C@@H]2OC(=O)CC(C)(C)C(=O)O[C@H]1OC(CO)[C@@H](O)C(O)C1O (stereo partly drawn)
999

----------
Tested on: SCC-25
Test: XTT viability assay, SCC-25
Format: cell-based
Conditions: Homo sapiens; Head and Neck Cancer, SCC-25, XTT
Protocol: Cells and culture conditions. […] XTT assay. […] Cell viability was measured using the R&D Systemsm TACS XTT Cell Proliferation/Viability Assay (R&D Systems, Minneapolis, Minn.).
Quantity name: pIC50
Lab note: report pIC50 as minus log10 of the concentration in molar units, number only.

>>> observed_result("CC(C)[C@]12O[C@H]1[C@@H]1O[C@]13[C@]1(O[C@H]1C[C@H]1C4=C(CC[C@@]13C)C(=O)OC4)[C@@H]2OC(=O)CCC(=O)O[C@@H]1OC(CO)[C@@H](O)C(O)C1O (some centres unmarked)")
5.90

Please turn your attention to the following entry.
Fill in: pIC50 of CC(C)[C@]12O[C@H]1[C@@H]1O[C@]13[C@]1(O[C@H]1C[C@H]1C4=C(CC[C@@]13C)C(=O)OC4)[C@@H]2OC(=O)CCCO[C@@H]1OC(CO)[C@@H](O)C(O)C1O (stereo in doubt) is ___
5.79

----------
System: Detroit 562
Test: XTT viability assay, Detroit 562
Assay type: cell-based
Details: Homo sapiens; Head and Neck Cancer, Detroit 562, XTT
Reported IC50 values are given for each entry in this list.
Numbers only here, please. The scale is µM.

>>> observed_result("CC(C)[C@]12O[C@H]1[C@@H]1O[C@]13[C@]1(O[C@H]1C[C@H]1C4=C(CC[C@@]13C)C(=O)OC4)[C@@H]2OC(=O)CCC(=O)O[C@@H]1OC(CO)[C@@H](O)C(O)C1O (some centres unmarked) [Compound 10]")
1.42

Query compound follows.
So what does the record say about IC50 for CC(C)[C@]12O[C@H]1[C@@H]1O[C@]13[C@]1(O[C@H]1C[C@H]1C4=C(CC[C@@]13C)C(=O)OC4)[C@@H]2OC(=O)CCCO[C@@H]1OC(CO)[C@@H](O)C(O)C1O (stereo in doubt) [Compound 1] ?
1.24
